Provenance of the data: PubChem BioAssay (NCI)

# run-description: NCI Yeast Anticancer Drug Screen. Data for the sgs1 mgt1 strain (AID 161);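 further: 0% = growth of cultures given vehicle only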
# condition-info: S. cerevisiae sgs1 mgt1 strain, at 50.0 µM (retest, dose inferred, filed as 5.0), stronger effect = higher value
Compounds without any hit were thinned out: in the full panel of roughly 79,000, 15% have a hit.
This listing pairs compounds with measured growth inhibition.
metric: growth inhibition (%)

CCOc1ccc(/C=C/[N+](=O)[O-])cc1[N+](=O)[O-]; 99
O=c1[nH]cc(Cn2cnc3ncccc3c2=O)c(=O)[nH]1; -1
CC1(C)N=C(N)N=C(N)N1CCCOc1ccc(NC(=O)c2ccc(S(=O)(=O)F)cc2)cc1; 15
O=[N+]([O-])c1ccc(O)c(CCl)c1; 36
NCCBr; -4
C=CCCCCCCCCC(=O)O (tested in a mixture with another compound); 27
CC(C)c1cccc(C(C)C)c1NC(=O)C(=O)CC(=O)CC(c1ccccc1)c1c(O)c2ccccc2oc1=O (stereo not given); 11
CCNC(=O)O/N=C1/C=C2CC[C@@H]3C(CC[C@@]4(C)C3CC[C@@H]4OC(=O)NCC)[C@@]2(C)CC1 (stereo not given in full); 72
CC1CCCN(CCc2ccccc2)CC1 (stereo not given); 76
[C](#Cc1ccccc1)[Hg][C]#Cc1ccccc1; 100
